Tested on: Madurella mycetomatis MM55
METHOD: percent growth relative to solvent control; higher = less inhibition, active = 20 or less
RECORDED CONDITIONS: 100 µM; 7 days
Select the matching outcome among active, inactive

> print(dat)
                                   compound  category.label
1    O=C(NC1CC1)c1ccc(N2CCOc3ccc(Cl)cc32)s1          active
2       O=C(Cn1ccnc1[N+](=O)[O-])NCc1ccccc1        inactive
3  CC(C)(C)C1CCC(CC2=C(O)C(=O)c3ccccc3C2=O)CC1 (configuration not stated)          active
4  c1ccc(Oc2ccc(-c3cc(CN4CCOCC4)[nH]n3)cc2)cc1          active
5   Cc1cc(NC(=O)c2ccc(Oc3ccc(Cl)cc3O)o2)no1        inactive

Now turn to the next compound.
Would you mind telling me which call this test gave COc1cc(C2=NCCN2)ccc1-n1cc(-c2cccc(C3=NCCN3)c2)nn1 ?
inactive

---

System: Madurella mycetomatis MM55
METHOD: percent growth relative to solvent control; higher = less inhibition, active = 20 or less
RECORDED CONDITIONS: 100 µM; 7 days
Give one outcome, nothing more. List: 1.0 = active, 0.0 = inactive

Use the examples below as a reference point.
> print(dat)
                                   compound  category.label
1           Cc1ccc2nc(Cl)c(CNCc3cccs3)cc2c1             1.0
2  Cc1nc(-c2ccccn2)nc(N2CCC(Cc3ccccc3)C2)c1Cl (stereo unspecified)             1.0
3  CS(=O)(=O)c1ccccc1C(=O)N(Cc1ccccc1)c1ccccc1             0.0
4  CS(=O)(=O)c1ccc(C(=O)N(CC2CCCO2)c2nc3ccccc3s2)cc1[N+](=O)[O-] (stereo unspecified)             0.0
5   Nc1ncnc2c1ncn2C[C@@H](O)[C@@H](O)C(=O)O             0.0

As a next step, examine the compound that follows.
Query: recorded result category for Cc1nc2ccccn2c1C(=O)NCc1ccc(Cl)cc1 in this test
0.0

---

Tested on: Madurella mycetomatis MM55
METHOD: IC90; higher = less potent
RECORDED CONDITIONS: 7 days
ENDPOINT LABEL: IC90 (µM)
Answers are plain numbers, in µM.

Worked cases, IC90 given:
> print(dat)
                                    compound  measured
 1  COc1ccc(OC)c(NCc2ccc3nc(N)nc(N)c3c2Cl)c1       4.7
 2     O=C(COc1cccc(F)c1)Nc1nc(-c2ccccn2)cs1      16.1
 3  CN1CCC(NCc2cccc(-c3ccc(S(=O)(=O)NCc4ccccc4)cc3)c2)CC1        92
 4     c1ccc(-c2nc(NC3CCCCC3)cc(C3CC3)n2)nc1      18.8
 5  N=C(N)Nc1ccc(-c2ccc(-c3ccc(N=C(N)N)c(Cl)c3)o2)cc1Cl      88.5
 6  CC(c1cc(Cl)cc(Cl)c1)N(C)c1ncc2c(N)nc(N)nc2n1 (stereo unspecified)      90.7
 7    O=C(NC1CC1)c1ccc(N2CCOc3ccc(Cl)cc32)s1      51.8
 8  CCOc1ccc2cc(-c3nn(CC4CCN(C)CC4)c4ncnc(N)c34)ccc2c1      87.8
 9  CN1CCN(c2nccc3[nH]c(-c4cccc(F)c4)cc23)CC1        93
10  O=C(Nc1ccc(C(F)(F)F)c(C(F)(F)F)c1)c1cc(Cl)ccc1O       3.8

Field: next compound
Item CC(Oc1ccccc1)C(=O)Nc1nc(-c2ccccn2)cs1 (stereo unspecified) has what recorded IC90?
18.5

---

System: Madurella mycetomatis MM55
METHOD: percent growth relative to solvent control; higher = less inhibition, active = 20 or less
RECORDED CONDITIONS: 100 µM; 7 days
In this exercise, the only acceptable responses are active, inactive

Before answering, review these 6 worked examples.
COMPOUND	ASSAY SYSTEM	CATEGORY LABEL
Cc1ccc(S(=O)(=O)n2cc(-c3ccnc(N)c3)c3cc(Br)cnc32)cc1	Madurella mycetomatis MM55	inactive
CC1CC1C(=O)NC1CCN(CC2(c3ccccc3)CCCCC2)CC1 (stereo not given)	Madurella mycetomatis MM55	inactive
C[C@@H]1[C@H](O)[C@@H](C)/C=C/C=C/C=C/C=C/C=C/C=C/C=C/[C@H](O[C@@H]2O[C@H](C)[C@@H](O)[C@H](N)[C@@H]2O)C[C@@H]2O[C@](O)(C[C@@H](O)C[C@@H](O)[C@H](O)CC[C@@H](O)C[C@@H](O)CC(=O)O[C@H]1C)C[C@H](O)[C@H]2C(=O)O	Madurella mycetomatis MM55	active
O=C(C(Cc1c[nH]c2ccccc12)NS(=O)(=O)c1ccc(Cl)cc1)N1CCCCC1 (stereo not given)	Madurella mycetomatis MM55	inactive
CC(C)(C)OC(=O)N1CCN(c2nccc(-c3ccc(-c4ccc(Cl)cc4)s3)n2)CC1	Madurella mycetomatis MM55	inactive
FC(F)(F)c1ccc(N(c2cccnc2)C2CCN(c3ccc(C(F)(F)F)cn3)CC2)cc1	Madurella mycetomatis MM55	inactive

Please indicate how the test categorized COc1ccc(C2=NN(C3CCCCCC3)C(=O)C2(C)C)cc1OCCCCOc1ccc(-c2nn[nH]n2)cc1 .
active

Likewise for Nc1nccc2ccc(Oc3ccncc3)cc12 ?
inactive

Try this compound too: COc1cccc(NC(=O)c2c(NC(=O)c3cccnc3)sc3c2CCC3)c1
inactive

Follow-up entry: CS(=O)(=O)Cc1nc2ccccc2oc1=O
inactive

---

Test system: Madurella mycetomatis MM55
METHOD: percent growth relative to solvent control; higher = less inhibition, active = 20 or less
RECORDED CONDITIONS: 100 µM; 7 days
ENDPOINT LABEL: percent growth (%)
Answers are plain numbers, in %.

> print(dat)
                              smiles.record                assay.system  measured
1  O=C(Nc1ccccc1)c1ccc(-c2cc3ccncc3cc2OC2CCNCC2)s1  Madurella mycetomatis MM55        -5
2  N#Cc1ccc(-c2cnc(N)c(-c3ccc(C(N)=O)cc3)n2)cc1  Madurella mycetomatis MM55      64.5
3  O=C(CCC1CCCCC1)Nc1cccc(-c2nnc(-c3ccco3)o2)c1  Madurella mycetomatis MM55      96.1
4  CC(C)NCC(=O)Nc1cccc(C(=O)Nc2cccc(C(F)(F)F)c2)c1  Madurella mycetomatis MM55      2.17
5  Cc1ncc(-c2ccnc(Nc3ccc(S(C)(=O)=O)cc3)n2)n1C(C)C  Madurella mycetomatis MM55      6.23

# batch: return percent growth for each of the 4 molecules below
1. COC(=O)c1c(NC(=O)c2cc3ccccc3oc2=O)sc2c1CCN(Cc1ccccc1)C2
2. Oc1c(I)cc(I)c2cccnc12
3. FC(F)(F)c1cccc(-c2nc3c(NCc4ccncc4)nccc3[nH]2)c1
4. CNC(=O)c1cc(S(=O)(=O)N2CCN(c3ccccn3)CC2)cs1

[111, -2.46, 72.4, 143]

Count: 2. Required value per item: percent growth.
1. CC(C)n1nc(-c2cc3c(Cl)cccc3[nH]2)c2c(N)ncnc21
2. O=C(c1ccc(F)cc1)N(CCNc1ccccc1)c1ccccc1

-3.21
6.35

---

Tested on: Madurella mycetomatis MM55
METHOD: percent growth relative to solvent control; higher = less inhibition, active = 20 or less
RECORDED CONDITIONS: 100 µM; 7 days
Please go through the items and note down their percent growth.
Numbers only, in %.

// worked examples, percent growth included
MOLECULE	ASSAY SYSTEM	UNIT TAG	percent growth
Cc1nn2c(O)c3c(nc2c1-c1ccc(F)cc1)CCCC3	Madurella mycetomatis MM55	%	113
COc1cccc(OCC(=O)c2ccc(Br)cc2)c1	Madurella mycetomatis MM55	%	81.3
Nc1ccc2ncnc(Nc3ccc(OCc4cccc(F)c4)c(Cl)c3)c2c1	Madurella mycetomatis MM55	%	92.1

Lab note: each molecule below needs its percent growth filled in.
1. O=C(Nc1nc(-c2ccccn2)cs1)c1cncn1-c1ccccc1
2. NCCCC(N)(C(=O)O)C(F)F (stereo not drawn)
3. Nc1ncnc2c1c(Cc1cccc3ccccc13)nn2CC1CCNCC1

1. 1.78
2. 133
3. 132

For every item in the list below, what is its measured percent growth?
1. COC(=O)Nc1nc2cc(C(=O)c3ccccc3)ccc2[nH]1
2. Cc1nnc(NCc2cccc(Cl)c2)c2ccccc12
3. Clc1ccc(CCNc2cc(-c3ccccc3)nc3ncnn23)cc1
4. CC(C)(C)c1cnc(NC(=O)c2ccccc2O)s1
5. CC(C)(C(=O)Nc1ccc(F)cc1)n1cc(-c2ccccc2F)cn1

1: 111; 2: -0.336; 3: 108; 4: 99.3; 5: 6.9

# batch: return percent growth for each of the 6 molecules below
1. CCc1c(C)nc(-n2nc(C)cc2NC(=O)c2ccccc2SC)[nH]c1=O
2. COc1ccc(-c2nnc3ccc(-c4cccc(C(C)C)c4)cn23)cc1OC
3. O=C(C1CCN(c2nnnn2-c2ccccc2)CC1)N1CCc2ccccc2C1
4. Cc1ccc(C(=O)Nc2ccc(S(=O)(=O)O)c3cc(S(=O)(=O)O)cc(S(=O)(=O)O)c23)cc1NC(=O)c1cccc(NC(=O)Nc2cccc(C(=O)Nc3cc(C(=O)Nc4ccc(S(=O)(=O)O)c5cc(S(=O)(=O)O)cc(S(=O)(=O)O)c45)ccc3C)c2)c1
5. COc1cc(NC(=O)Cc2nn(C)c(=O)c3ccccc23)ccc1Cl
6. CC1CCCCN1C(=O)NCCc1coc(-c2ccc(F)cc2)n1 (stereo not drawn)

1: 2.44; 2: 2.59; 3: 56.4; 4: 141; 5: 116; 6: 70

Taken from the supplement of paper PMC5940239.
